Provide the recorded glycan array binding signal (z-score) for the entries that follow.
target: Neu5Ac(a2-3)Gal(b1-4)[Fuc(a1-3)]GlcNAc6S; assay: glycan array binding signal (z-score within array); higher = stronger binding; conditions: glycan notation: IUPAC condensed, linker removed
The full list was thinned out, with the strongest signals kept by preference.
Response field accepts a number only; no unit should be typed.

Memo: Pwp5 ND (Candida glabrata) (protein) MGSSHHHHHHSSGLVPRGSHMASANPVPLTNVCYFPEEYPRQAGFRAITAGLASTILQGSVDELLNYSGLSSLTTQQTTTTTPNFQLPTLPLPTNVYGLTVVPLYLLVQLQGYFVPPVSGQYTFSLENTNDAAIIFFGNPSAFPCGDLSAWPQASADDITVTDGTFPSRTLFLKAGVAYPMRISYYNSLGSGNLAVSFTDPGGTKRTNWNGYIWRYNSCSTCTYT , reported glycan array binding signal (z-score): 0.989

Memo: Epa15 (Candida glabrata) (protein) MGSSHHHHHHSSGLVPRGSHMASDPTTFPLGCSPEFTKTKKGLSMELYRYDYLPPGSYPCWDSAYLNPSYPRTGYKAKKLIATVDGVSGDINFKFNPKFGCKAIPDYLPSNFNYHEPITITNFTMILYGYFMPKTTAFHTFYVTADDLLFMNFGAGNAFDCCRREETADKFGNYAAYSVWGKKSLKNELTVYLHTGVYYPIRLFYNNRDYIAQLDIRFKTEHSNAIITNFTDYFYSVDDSSLGCPGLI , reported glycan array binding signal (z-score): -0.461

Memo: Galatrox (Botrops atrox), P0DM53 (protein) NNCPQDWLPMNGLCYKIFDELKAWKDAEMFCRKYKPGCHLASIILYGESPEWAEGHSEVWLGLWDKKKDFSWEWTDR , reported glycan array binding signal (z-score): -0.373

Memo: RbmA (Vibrio cholerae), A0A2H4NFB8 (protein) MSNFKGSIMNKRHYYLASCLALLFSTASYAEVDCELQPVIEANLSLNQNQLASNGGYISSQLGIRNESCETVKFKYWLSIKGPEGIYFPAKAVVGVDTAQQESDALTDGRMLNVTRGFWVPEYMADGKYTVSLQVVAENGEVFKANQEFVKGGDLNSLPELNGLTIDIKNQFGINSVESTGGFVPFTIDLNNGREGEAKVEFWMTAVGPDGLIIPVHSREKWMIIAGNTFSKVRGINFDKSYPAGEYTINAQVVDIVSGERVEQLMTVVKK , reported glycan array binding signal (z-score): -0.009

Memo: Pwp2 (Candida glabrata) (protein) MGSSHHHHHHSSGLVPRGSHMASKNPVELNNVCTFPNDYGRIPGFTVLVGRLGLLISASDYKELLRYPGAFLIATQDTMTTSPNFELTGFPFFTGLYGLTVFPLDLLVELRGYFVPPNSGQYTFTLSDSDDAAIIFLGNPSAFPCGDLQNWPKPSEEDITVTDHLFPSRTLYLIEGVAYPMRIAYYNGIGAGRLNAAFIDPSGTRHTNWEGYIWQYDPCSTCTYS , reported glycan array binding signal (z-score): 0.309

Memo: BC2L-D C-terminal domain (Burkholderia cenocepacia), Q39MQ9_BURS3 (protein) LVIVDAVTLLSAYPEASRDPAAPTVIDGRHLYVVSPGDAAQLGHNDSRLFTGLSPGDQLHLRETALALRAEVSVLFIRFALKDAGIVAPIELEVRDAATAVPDADDLLHPSCRPLKDHYWRSDVLAAGATTCTADFAVCDRDGTVSGYFRWETSIEIAGSQPDTKQPGFKPSSDRNGNFSLPPNTAFKAIFYANAADRQDLKLFIDDAPEPAATFVGNSEDGVRLFTLNSKGGKIRIEASANGRQSATDARLAPLSAGDTVWLGWLGAEDGADADYNDGIVILQWPIT , reported glycan array binding signal (z-score): -0.244
